# measurement.notes: Oral bioavailability in rat at 3 mg/kg
# Format: ADME, organism-based
# assay.conditions: in vivo
quantity.kind: bioavailability (%)
Provide the reading as a plain figure in %.

INPUT: Query (compound): C[C@H]1CN(Cc2nc3ncccc3n2C)CC[C@H]1c1ccc(OC(F)(F)F)cc1F ; field requested: bioavailability
OUTPUT: 50

###

# measurement.notes: Cmax in rat brain at 3 mg/kg, po
# Type: ADME, organism-based
# Parameters: dose 3 mg/kg, route oral
quantity.kind: Cmax
Write down the value, and be sure its unit follows.

INPUT: Query (molecule): C[C@H]1CN(Cc2nc3ncccc3n2C)CC[C@H]1c1ccc(OC(F)(F)F)cc1F ; field requested: Cmax
OUTPUT: 1070 nM
